Reference source: patent US9902725B2

Target: RORγt ligand-binding domain (RORγt-LBD) (Homo sapiens, UniProt P51449)
Construct: 20 nM recombinantly expressed RORγ-LBD fused to GST
Sequence (P51449 269-508 limits assumed): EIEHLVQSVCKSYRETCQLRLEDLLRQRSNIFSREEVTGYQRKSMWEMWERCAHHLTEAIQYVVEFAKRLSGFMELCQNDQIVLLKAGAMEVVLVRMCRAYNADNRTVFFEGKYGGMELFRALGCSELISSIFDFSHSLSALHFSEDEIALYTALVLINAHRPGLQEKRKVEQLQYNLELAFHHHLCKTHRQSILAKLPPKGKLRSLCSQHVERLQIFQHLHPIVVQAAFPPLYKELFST
Assay: Time-resolved FRET (TR-FRET) RORγt coactivator assay
Conditions: GST-RORγ-LBD, biotinylated RIP140 peptide, coactivator displacement
pIC50: −log10 of the molar value.
MEASURE: pIC50

Please review the entries below; each comes with its answer.
Cc1cc(C(NC(=O)Cc2ccc3[nH]cc(CCC(=O)OC(C)(C)C)c3c2)c2ccccc2N2CCCCC2)oc1C (stereo not drawn) ... 5.00 to 6.00
Cc1ccc(C(NC(=O)Cc2ccc3[nH]cc(CCC(=O)O)c3c2)c2ccccc2)c(N2CCCCC2)c1 (stereo not drawn) ... > 6.00
Cc1cccc(C(NC(=O)Cc2ccc3[nH]cc(CCC(=O)O)c3c2)c2ccccc2)c1N1CCCCC1 (stereo not drawn) ... > 6.00
O=C(O)CCc1c[nH]c2ccc(CC(=O)NC(c3ccccc3)c3ccc(F)cc3N3CCCC3)cc12 (stereo not drawn) ... > 6.00
CC(C)(C)OC(=O)CCc1c[nH]c2ccc(CC(=O)NC(c3ccccc3)c3ccc(C#N)cc3N3CCCC3)cc12 (stereo not drawn) ... > 6.00
O=C(O)CCCCc1c[nH]c2ccc(CC(=O)NC(c3ccccc3)c3ccccc3N3CCCCC3)cc12 (stereo not drawn) ... > 6.00

Write down pIC50 measured for item O=C(O)CCc1c[nH]c2ccc(CC(=O)NC(c3cccc(F)c3)c3ccccc3N3CCCCC3)cc12 (stereo not drawn) > 6.00

Write down pIC50 measured for item CC(C)(C)OC(=O)CCc1c[nH]c2ccc(CC(=O)NC3(c4ccccc4N4CCCC4)CCCC3)cc12 5.00 to 6.00

Write down pIC50 measured for item Cc1ccc(C(NC(=O)Cc2ccc3[nH]cc(CCC(=O)OC(C)(C)C)c3c2)c2nccs2)c(N2CCCCC2)c1 (stereo not drawn) > 6.00

Write down pIC50 measured for item Cc1cc(F)ccc1C(NC(=O)Cc1ccc2[nH]cc(CCC(=O)O)c2c1)c1ccccc1 (stereo not drawn) > 6.00
